test system: calf thymus DNA; test: Fluorescence emission and enhancement of compounds bound to calf thymus DNA; format: binding; details: 0.8 μM compound with 500 ng/ml calf thymus DNA in TE buffer, excited at 488 nm
Emission Max by entry:
ENDPOINT: Emission Max

* CCCN(CCC[N+](C)(C)Cc1ccccc1)C1=C/C(=C/c2sc3ccccc3[n+]2C)c2ccc(OC)cc2N1c1ccccc1.[Br-].[I-] | 520 nm
* CCN(CCC[N+](C)(C)C)C1=CC(=Cc2sc3ccccc3[n+]2C)c2ccc(OC)cc2N1c1ccccc1.[I-].[I-] | 520 nm
* CCCN(CCC[N+](C)(C)Cc1ccccc1)C1=C/C(=C\c2sc3ccccc3[n+]2C)c2ccccc2N1c1ccccc1.[Br-].[Cl-] | 523 nm
* CCCN(CCC[N+](C)(C)Cc1cccc(OC)c1)C1=CC(=Cc2sc3ccccc3[n+]2C)c2ccc(OC)cc2N1c1ccccc1.[Br-].[I-] | 518 nm
* CCCN(CCC[N+](C)(C)CCC)C1=C/C(=C/c2sc3ccccc3[n+]2C)c2ccccc2N1c1ccccc1.[I-].[I-] | 524 nm

###

system: calf thymus DNA; assay: Fluorescence emission and enhancement of compounds bound to calf thymus DNA; format: binding; details: 0.8 μM compound with 500 ng/ml calf thymus DNA in TE buffer; emission area 500-715 nm compared to compound 1, defined as 1000-fold
ENDPOINT: Fluorescence Enhancement (fold)

* CCCCN(CCC[N+](C)(C)CCO)C1=CC(=Cc2sc3ccccc3[n+]2C)c2ccc(OC)cc2N1c1ccccc1.[I-].[I-] [Compound 38] | 1089
* CCN(CC[N+](C)(C)Cc1ccccc1)C1=C/C(=C/c2sc3ccccc3[n+]2C)c2ccccc2N1c1ccccc1.[Br-].[I-] [Compound 32] | 672
* C[n+]1c(/C=C2/C=C(n3cnc4ccccc43)N(c3ccccc3)c3ccccc32)sc2ccccc21.[Cl-] [Compound 63] | 42
* CCCN(CCCN(C)C)C1=C/C(=C/c2sc3ccccc3[n+]2C)c2ccccc2N1c1ccccc1 [Compound 1, reference compound] | 1000
* CCCN(CCC[N+](C)(C)Cc1ccccc1)C1=C/C(=C/c2sc3ccccc3[n+]2C)c2ccc(OC)cc2N1c1ccccc1.[Br-].[I-] [Compound 46] | 931
* CCCN(CCC[N+](C)(C)Cc1cccc(OC)c1)C1=CC(=Cc2sc3ccccc3[n+]2C)c2ccc(OC)cc2N1c1ccccc1.[Br-].[I-] [Compound 47] | 1038

###

Emission Max by entry:
test system: calf thymus DNA; test: Fluorescence emission and enhancement of compounds bound to calf thymus DNA; assay type: binding; conditions: 0.8 μM compound with 500 ng/ml calf thymus DNA in TE buffer, excited at 488 nm
ENDPOINT: Emission Max (nm)

- CCCCN(CCC[N+](C)(C)CCC)C1=C/C(=C/c2sc3ccccc3[n+]2C)c2ccccc2N1c1ccccc1.[I-].[I-]: 524
- CCCCN(CCC[N+](C)(C)Cc1ccccc1)C1=CC(=Cc2sc3ccccc3[n+]2C)c2ccc(OC)cc2N1c1ccccc1.[I-].[I-]: 517
- CCCCN(CCC[N+](C)(C)Cc1ccccc1)C1=C/C(=C/c2sc3ccccc3[n+]2C)c2ccccc2N1c1ccccc1.[Br-].[I-]: 523
- CCCN(CCCN(C)C)C1=C/C(=C/c2sc3ccccc3[n+]2C)c2ccccc2N1c1ccccc1 [Compound 1, reference compound]: 523
- CCCCN(CCC[N+](C)(C)CC)C1=C/C(=C/c2sc3ccccc3[n+]2C)c2ccccc2N1c1ccccc1.[I-].[I-]: 526
- CC[N+](C)(C)CCCN(C)C1=C/C(=C/c2sc3ccccc3[n+]2C)c2ccccc2N1c1ccccc1.[I-].[I-]: 524
- CN(CCC[N+](C)(C)CCO)C1=C/C(=C/c2sc3ccccc3[n+]2C)c2ccccc2N1c1ccccc1.[I-].[I-]: 523
- CCCN(CCC[N+](C)(C)C)C1=CC(=Cc2sc3ccccc3[n+]2C)c2ccc(OC)cc2N1c1ccccc1.[I-].[I-]: 519
- CCN(CCC[N+](C)(C)C)C1=C/C(=C/c2sc3ccccc3[n+]2C)c2ccccc2N1c1ccccc1.[I-].[I-]: 523
- CCCN(CCC[N+](C)(C)C)C1=CC(=Cc2sc3ccccc3[n+]2C)c2ccccc2N1c1ccccc1.[Cl-].[I-]: 523
- CCN(CCC[N+](C)(C)Cc1ccccc1)C1=C/C(=C/c2sc3ccccc3[n+]2C)c2ccc(OC)cc2N1c1ccccc1.[Br-].[I-]: 520
- CCN(CC[N+](C)(C)CC)C1=C/C(=C/c2sc3ccccc3[n+]2C)c2ccc(OC)cc2N1c1ccccc1.[I-].[I-]: 521
- CCCN(CCC[N+](C)(C)CC)C1=C/C(=C/c2sc3ccccc3[n+]2C)c2ccccc2N1c1ccccc1.[Cl-].[I-]: 524
- CCN(CC[N+](C)(C)Cc1cccc(OC)c1)C1=C/C(=C/c2sc3ccccc3[n+]2C)c2ccccc2N1c1ccccc1.[Br-].[I-]: 526
- COc1cccc(C[N+](C)(C)CCCN(C)C2=C/C(=C/c3sc4ccccc4[n+]3C)c3ccccc3N2c2ccccc2)c1.[Br-].[I-]: 521
- CCC[N+](C)(C)CCN(CC)C1=C/C(=C/c2sc3ccccc3[n+]2C)c2ccccc2N1c1ccccc1.[I-].[I-]: 527
- CCCCN(CCC[N+](C)(C)CCC)C1=CC(=Cc2sc3ccccc3[n+]2C)c2ccc(OC)cc2N1c1ccccc1.[I-].[I-]: 519
- CCN(CCN(C)C)C1=C/C(=C/c2sc3ccccc3[n+]2C)c2ccccc2N1c1ccccc1.[Cl-]: 525
- CCN(CCC[N+](C)(C)CC)C1=C/C(=C/c2sc3ccccc3[n+]2C)c2ccccc2N1c1ccccc1.[I-].[I-]: 523
- CN(C)CCCC1=C/C(=C/c2sc3ccccc3[n+]2C)c2ccccc2N1c1ccccc1: 529
- CCN(CC[N+](C)(C)C)C1=C/C(=C/c2sc3ccccc3[n+]2C)c2ccc(OC)cc2N1c1ccccc1.[I-].[I-]: 523
- CCC[N+](C)(C)CCCN(C)C1=C/C(=C/c2sc3ccccc3[n+]2C)c2ccccc2N1c1ccccc1.[I-].[I-]: 522
- CCN(CCC[N+](C)(C)CC)C1=CC(=Cc2sc3ccccc3[n+]2C)c2ccc(OC)cc2N1c1ccccc1.[I-].[I-]: 519
- CCN(CC[N+](C)(C)C)C1=C/C(=C/c2sc3ccccc3[n+]2C)c2ccccc2N1c1ccccc1.[Cl-].[I-]: 528
- CCCCN(CCC[N+](C)(C)CC)C1=CC(=Cc2sc3ccccc3[n+]2C)c2ccc(OC)cc2N1c1ccccc1.[I-].[I-]: 521
- CCN(CCCN(C)C)C1=C/C(=C/c2sc3ccccc3[n+]2C)c2ccccc2N1c1ccccc1.[I-]: 524

###

fluorescent emission with ssDNA by entry:
system: ssDNA; assay: Microplate fluorescence when bound to ssDNA; format: binding; conditions: Example 3, Table 3; 500 ng/mL ssDNA, 1 μM compound, 491 nm excitation, 520 nm emission
ENDPOINT: fluorescent emission with ssDNA

* CCCCN(CCC[N+](C)(C)C)C1=CC(=Cc2sc3ccccc3[n+]2C)c2ccc(OC)cc2N1c1ccccc1.[I-].[I-] | 2515
* CCCN(CCC[N+](C)(C)C)C1=CC(=Cc2sc3ccccc3[n+]2C)c2ccccc2N1c1ccccc1.[Cl-].[I-] | 1773
* CCN(CCCN(C)C)C1=CC(=Cc2sc3ccccc3[n+]2C)c2ccc(OC)cc2N1c1ccccc1.[I-] | 2739
* CCCN(CCCN(C)C)C1=CC(=Cc2sc3ccccc3[n+]2C)c2ccc(OC)cc2N1c1ccccc1.[I-] | 2878
* CCCCN(CCCN(C)C)C1=CC(=Cc2sc3ccccc3[n+]2C)c2ccc(OC)cc2N1c1ccccc1.[I-] | 2578
* CN(C)CCCN(CCCN(C)C)C1=CC(=Cc2sc3ccccc3[n+]2C)c2ccccc2N1c1ccccc1.[I-] [Compound R1, reference compound] | 1081
* CCCN(CCC[N+](C)(C)C)C1=CC(=Cc2sc3ccccc3[n+]2C)c2ccc(OC)cc2N1c1ccccc1.[I-].[I-] | 3017
* COc1ccc2c(c1)N(c1ccccc1)C(N(CCC[N+](C)(C)C)CCC[N+](C)(C)C)=CC2=Cc1sc2ccccc2[n+]1C.I [Compound R2, reference compound] | 1669

###

tested on: calf thymus DNA; experiment: Fluorescence emission and enhancement of compounds bound to calf thymus DNA; assay type: binding; settings: 0.8 μM compound with 500 ng/ml calf thymus DNA in TE buffer; emission area 500-715 nm compared to compound 1, defined as 1000-fold
Note to self: Fluorescence Enhancement under 900 fold means class 1, ties and anything higher get class 0.

* CCCCN(CCC[N+](C)(C)Cc1ccccc1)C1=CC(=Cc2sc3ccccc3[n+]2C)c2ccc(OC)cc2N1c1ccccc1.[I-].[I-] [Compound 39] | class 0
* CCCN(CCC[N+](C)(C)C)C1=CC(=Cc2sc3ccccc3[n+]2C)c2ccccc2N1c1ccccc1.[Cl-].[I-] [Compound 2] | class 0
* CCCCN(CCCN(C)C)C1=C/C(=C/c2sc3ccccc3[n+]2C)c2ccccc2N1c1ccccc1.[I-] [Compound 8] | class 0
* CCN(CC[N+](C)(C)C)C1=C/C(=C/c2sc3ccccc3[n+]2C)c2ccccc2N1c1ccccc1.[Cl-].[I-] [Compound 29] | class 1
* CCN(CCC[N+](C)(C)CC)C1=C/C(=C/c2sc3ccccc3[n+]2C)c2ccccc2N1c1ccccc1.[I-].[I-] [Compound 17] | class 1
* CCN(CCN(C)C)C1=C/C(=C/c2sc3ccccc3[n+]2C)c2ccccc2N1c1ccccc1.[Cl-] [Compound 28] | class 1
* CCC[N+](C)(C)CCCN(CC)C1=CC(=Cc2sc3ccccc3[n+]2C)c2ccc(OC)cc2N1c1ccccc1.[I-].[I-] [Compound 51] | class 0
* CCN(CCC[N+](C)(C)C)C1=C/C(=C/c2sc3ccccc3[n+]2C)c2ccccc2N1c1ccccc1.[I-].[I-] [Compound 16] | class 1
* CCCN(CCC[N+](C)(C)Cc1ccccc1)C1=C/C(=C\c2sc3ccccc3[n+]2C)c2ccccc2N1c1ccccc1.[Br-].[Cl-] [Compound 6] | class 0
* CCCCN(CCC[N+](C)(C)C)C1=CC(=Cc2sc3ccccc3[n+]2C)c2ccc(OC)cc2N1c1ccccc1.[I-].[I-] [Compound 35] | class 0
